Values compiled from patent US20220169646A1.

Test system: phospho-CDC2 (Tyr15) in A427 cells
PROTOCOL: Phospho-CDC2 (Tyr15) sandwich ELISA in A427 cells
Type: cell-based
DETAILS: Homo sapiens, A-427, PathScan Phospho-CDC2 (Tyr15) ELISA, specified time (e.g., 24 hr)
PARAMETER_MEASURED: IC50 (nM)
Give your result in nM as a bare value.

Query for phospho-CDC2 (Tyr15) in A427 cells: what IC50 does the record show for "CC(C)n1c(=O)c2cnc(Nc3ccc4c(c3)CNCC4)nc2n1-c1ccc(C#N)cc1" ? 278
